Assay: Covalent reversible inhibition of Leishmania cysteine protease B using Z-Phe-Arg-7-amido-4-methylcoumarin as substrate incubated for 2 mins followed by substrate addition by fluorescence assay
// reported pKi for each item listed

CHEMICAL_STRING	pKi
N#CC1(NC(=O)[C@@H](Cc2ccccc2)N[C@@H](c2ccc(Br)cc2)C(F)(F)F)CC1	< 5
COc1ccc([C@@H](N[C@H](Cc2ccccc2)C(=O)NC2(C#N)CC2)C(F)(F)F)cc1	< 5

Now turn to the next compound.
I am curious: what pKi value has been reported for Cc1ccc([C@H](N[C@H](Cc2ccccc2)C(=O)NC2(C#N)CC2)C(F)(F)F)cc1 ?
< 5

====

Test: Covalent reversible inhibition of Leishmania cysteine protease B using Z-Phe-Arg-7-amido-4-methylcoumarin as substrate incubated for 2 mins followed by substrate addition by fluorescence assay
TEST_READOUT: pKi

Illustrative cases are given below, each with its answer.
CHEMICAL_STRING	TEST_READOUT	OBSERVED
COc1ccc([C@H](N[C@H](Cc2ccccc2)C(=O)NC2(C#N)CC2)C(F)(F)F)cc1	pKi	< 5
Cc1ccc([C@@H](N[C@H](Cc2ccccc2)C(=O)NC2(C#N)CC2)C(F)(F)F)cc1	pKi	< 5

Now turn to the next compound.
I am curious: what pKi value has been reported for COc1ccc([C@@H](N[C@@H](Cc2ccccc2)C(=O)NC2(C#N)CC2)C(F)(F)F)cc1 ?
< 5
